parameterMeasured: melting point

                                   compound  reportedmeasurement
0  O=C(CNC(=O)c1ccc([N+](=O)[O-])c(F)c1)OCc1ccccc1        118 to 120 °C

**Q:** What does the record list as melting point for Cc1cccc2sc(=O)[nH]c12 ?
**A:** 207 to 208 °C

**Q:** For Cc1cccc(C)c1NCc1nnc(S)n1C then?
**A:** 172 to 173 °C

**Q:** Also, CN(C)CCCC(C(=O)O)c1ccccc1-c1ccccc1 (stereo not drawn) please.
**A:** 192 to 194 °C

---

parameterMeasured: melting point

Known results for compounds:
>>> df
                                   compound  reportedmeasurement
0  COc1ccc(C2CCOCC2)c2sc(NC(=O)c3ccnc(CN4CCOCC4)c3)nc12        199 to 201 °C
1  CC(C)N(CCN1C(=O)/C(=N/NC(N)=O)c2cc(Cl)ccc21)C(C)C        154 to 155 °C
2  Cc1cc(C)c2c(c1O)C(=O)C(C)(Cc1ccccc1)C2 (stereo not given)          86 to 87 °C

**Q:** Please give the measured melting point for this compound: O=c1cc(O)n(-c2cccc(C(F)(F)F)c2)nc1-c1ccnn1-c1ccccc1
**A:** 241 to 243 °C

**Q:** Please give the result for FC(F)(F)c1cc(-c2cc3ccccc3o2)c2cccc(C(F)(F)F)c2n1 too.
**A:** 129 to 130 °C

**Q:** Next up: CC(c1ccc(-c2ccccc2)c(F)c1)c1nc(N)no1 (stereo not given)
**A:** 174 to 175 °C

**Q:** Try CCOc1cccc(Cn2ncc3c(N4CCN(C(=O)OC(C)(C)C)CC4)ncnc32)n1 next.
**A:** 130 to 132 °C

**Q:** Same read-out for CCOP(=O)(Cc1nnc2c(=O)[nH]c3ccc(Cl)cc3n12)OCC ?
**A:** 223 to 227 °C

**Q:** Item: Cc1cc2[nH]c(=O)ccc(=O)c2cc1C
**A:** 258 °C

**Q:** Same for Fc1cc(F)c2nc(CCC#Cc3ccccn3)cn2c1
**A:** 130 to 131 °C

**Q:** Also check CCCCCCCCCCCCCCCCCCOc1cc(OCCCOc2ccc(OCc3ccccc3)cc2)cc(C(=O)OC)c1
**A:** 76 to 77 °C

**Q:** Follow-up entry: O=S(=O)(c1ccc(Cl)cc1)N1CCCC1c1ccccc1 (racemic)
**A:** 119 °C

**Q:** CC(=O)Cc1cc([C@]2(c3cccc(-c4cccnc4F)c3)N=C(N)N(C)C2=O)cn1CCCF ?
**A:** 147 to 150 °C

**Q:** And what about the compound CCOC(=O)C(C)c1ccc(CC2CCCCC2=NO)cc1 (stereo not given) ?
**A:** 102 to 104 °C

**Q:** Then what about the compound CC(=O)OC1CCC2(C)C(CCC3=C4C(=O)CC(C(C)CCCC(F)(C(F)(F)F)C(F)(F)F)C4(C)CCC32)C1 (stereo not given) ?
**A:** 187 to 188 °C

**Q:** Repeat with C=CCc1cc(C(C)=O)c(O)cc1OCCCCC(=O)O
**A:** 110 to 111 °C

**Q:** Entry to check: CCOC(=O)c1ncc2[nH]c3ccc(C4CC=CCC4)cc3c2c1C (stereo not given)
**A:** 200 to 201 °C

**Q:** Lookup Cc1nccn1-c1ccc(Sc2cccc(C3(C(N)=O)CCOCC3)c2)cc1
**A:** 184 to 185 °C

**Q:** Next compound: COc1ccnc(CCc2nc3cc(-c4ccsc4)cnc3[nH]2)c1
**A:** 154 to 155 °C

**Q:** Repeat with O=Cc1cc(O)c(O)c(C(F)(F)F)c1
**A:** 188 to 192 °C

---

Overview of reported melting point across a group of molecules:

The cases that follow already have their melting point on record.
                                   molecule  parametermeasured  reportedmeasurement
0  CC(=O)OCCOc1cnc(-c2ncc([N+](=O)[O-])n2C)nc1      melting point        148 to 150 °C
1  CON=Cc1cc(=O)c(OCc2ccccc2)c(C(=O)c2ccc(Cc3ccc(F)cc3)o2)o1      melting point        116 to 117 °C
2            O=C1CCCC(=O)N1c1cc(Br)cc(Br)c1      melting point        152 to 154 °C
3  CCOC(=O)C(=CN)C(=O)c1cc(F)c(Cl)c([N+](=O)[O-])c1Cl      melting point        113 to 114 °C
4          O=C(O)[C@@H](Cl)[C@H](O)c1ccccc1      melting point         98 to 100 °C

Switching to the query record.
**Q:** Which value of melting point has been reported for CC1=C(/C=C/C(C)=C/CO)C(C)(C)CC(O)C1=O (stereo unspecified) in the records?
**A:** 85 to 86 °C

---

The following molecules are shown together with reported melting point values.

In the examples that follow, each entry is paired with its recorded melting point.
>>> print(df.to_string())
                                   molecule  reportedmeasurement
0             CCOC(=O)CCc1cn(-c2ccccc2)nc1O        116 to 118 °C
1  C[C@]12CC/C(=C\F)C=C1CC[C@@H]1[C@@H]2CC[C@]2(C)C(=O)CC[C@@H]12        101 to 102 °C
2  Cn1c(C(F)(F)F)c(Cl)c(=O)n(-c2ccc(Cl)c3nc(C(C)(C)C)oc23)c1=O          83 to 86 °C
3    CC(=O)Oc1ccc(-c2cnc[nH]c2=O)cc1OC(C)=O        183 to 184 °C
4  COC(=O)CCCCCC(O)c1ccc(-n2ccnc2)cc1 (stereo not given)          77 to 78 °C
5  COc1cc(N2CCC(N3CCN(C)CC3)CC2)ccc1-c1nc2c(N[C@H]3[C@@H](C(N)=O)[C@@H]4C=C[C@H]3C4)ccnc2[nH]1        185 to 195 °C

**Q:** Record request: melting point value, item CC(=O)Oc1cc(-c2ccccc2)ccc1C1(OC(C)=O)C(=O)c2ccccc2C1=O
**A:** 165 to 167 °C

**Q:** Likewise for CN(O)C(=O)C=Cc1ccc2ccccc2c1 ?
**A:** 138 to 140 °C

**Q:** What do you get for Brc1ccc(C2CC(n3cncn3)c3ccccc3N2)cc1 (stereo not given) ?
**A:** 158 to 160 °C

**Q:** Input CCC1C(=O)N(CC)CCc2c1ccc(Nc1ncc(Cl)c(Nc3ccccc3C(=O)NC)n1)c2OC (stereo not given)
**A:** 157 to 158 °C

**Q:** Now the same for Cn1c(C(F)(F)F)cc(=O)n(-c2cc(S)c(Cl)cc2F)c1=O
**A:** 132 °C

---

Listed here are compounds together with their documented melting point.

**Q:** // returns reported melting point for input NCC1(c2onc(-c3ccc(O)cc3)c2-c2ccccc2)CC1
**A:** 220 to 225 °C

**Q:** Try the compound O=C(Nc1ccccc1)O[C@@H]1CN=C(c2ccc([N+](=O)[O-])cc2)O[C@H]1c1ccccc1 (racemic)
**A:** 148 °C

---

This section presents compounds with their documented melting point values.

Recorded results for 10 compounds are shown here.
In [3]: df
Out[3]:
                                   compound  parametermeasured  reportedmeasurement
0  O=C(N1CCCCC12CCc1ccccc1C2=O)C(F)(F)F (centres undefined)      melting point         97 to 100 °C
1  CCc1nccc(NC2COC(c3ccccc3)OC2)c1Cl (centres undefined)      melting point        119 to 120 °C
2  CC(C)(C)OC(=O)NC1CCCCCC=CC2CC2(C(=O)NS(=O)(=O)C2CC2)NC(=O)C2CC(OC(=O)c3ccc(Cl)cc3)CN2C1=O (centres undefined)      melting point        143 to 145 °C
3  CC(C)c1cccc(C(C)C)c1NC(=O)N(Cc1ccccc1)CC(c1ccccc1)c1ccccc1      melting point        153 to 155 °C
4  CN(C)S(=O)(=O)NC1CCC(CCN2CCN(c3nccc4c3OCC4)CC2)CC1 (centres undefined)      melting point               128 °C
5                CC(=O)OC(=O)c1cc(CCl)ccc1O      melting point        119 to 121 °C
6  Cc1cc(C)c(S(=O)(=O)OCCC2CCN(S(=O)(=O)c3c(C)cc(C)cc3C)CC2)c(C)c1      melting point        93.5 to 94 °C
7   CC(C)(COc1nn2ccnc2c2c1CCCC2)CS(N)(=O)=O      melting point        198 to 200 °C
8              Cc1cn(C)cc1-c1cc2nccnc2[nH]1      melting point               210 °C
9            COc1ccc(N)c(SSc2cc(OC)ccc2N)c1      melting point          78 to 80 °C

**Q:** Quick one: melting point of Cc1ccc(S(=O)(=O)NC2(c3ccccc3)C3=NCC(C)(C)CN3c3ccccc32)cc1 (centres undefined) ?
**A:** 224 to 226 °C

**Q:** Next compound: O=C1OC2=C(COc3ccccc32)C1=O
**A:** 146 to 148 °C

**Q:** Input CC(=O)OCC1(c2ccc(F)cc2)CCC(=O)CC1
**A:** 80 to 84 °C

**Q:** Same question for Fc1cc(-c2cc(C(F)(F)F)n3cnc(-c4ccncc4)c3n2)ccc1C(F)(F)F please.
**A:** 267 °C

**Q:** Item: Cc1ccc(-c2cc3cc(C4=NNC(=O)CC4)ccc3[nH]2)cc1
**A:** 266 to 268 °C

**Q:** Also C[C@H](CSC(=O)C1CCCCC1)C(=O)N1CSC[C@H]1C(=O)O , if possible.
**A:** 79.5 to 80 °C

**Q:** Thanks! And CNC(=O)n1ncc2ccc(NC(=O)/C=C/c3ccc(C(C)(C)C)cc3)cc21 ?
**A:** 208 to 209 °C

**Q:** Try N#Cc1cc(Oc2ccc(Cl)cc2)ccc1N next.
**A:** 116 to 118 °C

**Q:** Further, for CCOC(=O)C1=C(N)NC(N)=C(C(=O)OCC)C1c1ccccc1C ?
**A:** 158 °C

**Q:** Subsequent entry: CC(=O)c1ccccc1-c1ccc(C(=O)N2Cc3ccc(C(=O)NCc4cccnc4)n3Cc3ccccc32)cc1
**A:** 149 to 150 °C

**Q:** # repeat for O=C1OCCN1CCCn1ccnc1[N+](=O)[O-]
**A:** 89 to 91 °C

**Q:** Another compound to check: c1ncn2nncc2n1
**A:** 249 to 251 °C

**Q:** Queued: COc1ccc(C(=O)c2ccc(OCCc3nc(-c4ccccc4)oc3C)cc2)c(OC(C)(C)C(=O)O)c1
**A:** 81 to 82 °C
